target: UniProt Q15561; assay: Thermal shift assay TEAD4; format: binding
Sequence (Q15561 whole entry, species assumed): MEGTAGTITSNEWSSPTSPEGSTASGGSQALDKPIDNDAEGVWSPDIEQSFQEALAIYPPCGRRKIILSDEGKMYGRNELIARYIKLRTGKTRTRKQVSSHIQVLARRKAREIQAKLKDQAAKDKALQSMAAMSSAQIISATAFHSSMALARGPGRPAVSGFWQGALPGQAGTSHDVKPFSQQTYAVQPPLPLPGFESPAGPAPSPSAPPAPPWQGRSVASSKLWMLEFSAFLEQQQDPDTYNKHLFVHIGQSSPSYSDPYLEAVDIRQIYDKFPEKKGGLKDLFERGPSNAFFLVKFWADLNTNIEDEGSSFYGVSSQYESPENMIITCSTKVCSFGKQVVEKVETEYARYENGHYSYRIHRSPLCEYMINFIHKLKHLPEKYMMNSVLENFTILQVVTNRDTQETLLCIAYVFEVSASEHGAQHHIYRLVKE
Parameter measured: TEAD4 ΔTm (°C)

| Compound | Reported value |
| --- | --- |
| CNS(=O)(=O)CCc1cc(N2CCC3(CCCC3)CC2)cc2cn(C)nc12 | 8.4 |
| Cn1cc2cc(Oc3ccc(C(F)(F)F)cc3)cc(C3C[C@H]3C(=O)N3C4COCC3C4)c2n1 (single isomer, unassigned) | 12.6 |
| CNS(=O)(=O)CCc1cc(Oc2ccc(C(F)(F)F)cc2)cc2c1NCCC2 | 8.8 |
| Cn1cc2cc(Oc3ccc(C(F)(F)F)cc3)cc([C@@H]3C[C@H]3C(=O)O)c2n1 (single isomer, unassigned) [Example 16a] | 11.4 |

---

biological target: TEAD2 (Homo sapiens, UniProt Q15562); test: Thermal shift assay TEAD2; format: binding
Sequence (Q15562 whole entry, species assumed): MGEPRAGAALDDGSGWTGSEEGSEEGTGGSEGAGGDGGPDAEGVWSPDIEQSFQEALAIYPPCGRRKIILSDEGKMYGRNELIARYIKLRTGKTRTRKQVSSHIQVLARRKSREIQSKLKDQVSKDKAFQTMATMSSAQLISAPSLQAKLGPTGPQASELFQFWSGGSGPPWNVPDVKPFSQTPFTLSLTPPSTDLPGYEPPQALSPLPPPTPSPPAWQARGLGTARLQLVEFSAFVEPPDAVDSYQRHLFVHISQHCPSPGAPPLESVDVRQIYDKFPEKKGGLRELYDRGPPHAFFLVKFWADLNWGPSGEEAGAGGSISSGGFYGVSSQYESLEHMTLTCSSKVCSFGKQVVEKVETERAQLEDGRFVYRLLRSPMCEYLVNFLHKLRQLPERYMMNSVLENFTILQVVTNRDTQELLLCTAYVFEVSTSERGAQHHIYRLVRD
Parameter measured: TEAD2 ΔTm (°C)

| Molecule | System | Parameter measured | Reported value |
| --- | --- | --- | --- |
| CN(C#N)C(=O)[C@@H]1C[C@H]1c1cc(Oc2ccc(C(F)(F)F)cc2)cc2cn(C)nc12 (single isomer, unassigned) [Example 124] | TEAD2 (Homo sapiens, UniProt Q15562) | TEAD2 ΔTm | 9.8 |
| CO[C@@H]1CN(C(=O)[C@@H]2C[C@H]2c2cc(Oc3ccc(C(F)(F)F)cc3)cc3cn(C)nc23)C[C@H]1O (single isomer, unassigned) [Example 112b] | TEAD2 (Homo sapiens, UniProt Q15562) | TEAD2 ΔTm | 10.2 |
| CNS(=O)(=O)[C@@H]1C[C@H]1c1cc(Oc2ccc(C(F)(F)F)cc2)cc2c1NCCC2 (racemic) [Example 146] | TEAD2 (Homo sapiens, UniProt Q15562) | TEAD2 ΔTm | 12.0 |

[a] CN(C)C(=O)[C@@H]1C[C@H]1c1cc(Oc2ccc(C(F)(F)F)c(F)c2)cc2cn(C)nc12 (single isomer, unassigned) [Example 141]
[b] CNC(=O)[C@@H]1CC1c1cc(Oc2ccc(C(F)(F)F)cc2)cc2cccnc12 (mixture of isomers) [Example 80]
stdin: // compare measured TEAD2 ΔTm between a and b ; output the lower one Refer to your chosen item by its label in the answer.
stdout: b
(b: 10.5 °C, a: 16.2 °C)

---

test: Pharmacokinetic profile evaluation in mice; format: in vivo, CD-1 mice; conditions: CD-1; mouse, oral administration at 10 mg/kg, plasma
Parameter measured: AUC(0-t) (ng·h/mL)

Worked examples, 3 compounds total:
| Compound | AUC(0-t), ng·h/mL |
| --- | --- |
| CNC(=O)[C@@H]1CC1c1cc(-c2ccc(C(F)(F)F)cc2)cc2c1cnn2C (mixture of isomers) | 70000 |
| Cn1cc2cc(Oc3ccc(C(F)(F)F)cc3)cc(C3C[C@H]3C(=O)N3C[C@@H]4C[C@H]3C[C@@H]4O)c2n1 (single isomer, unassigned) [Example 103f] | 51600 |
| O=C(O)[C@@H]1CC1c1cc(Oc2ccc(C(F)(F)F)cc2)cc2cccnc12 (mixture of isomers) | 497000 |

[a] Cn1ncc2c(C3C[C@H]3C(=O)O)cc(Oc3ccc(C(F)(F)F)cc3)cc21 (mixture of isomers)
[b] CNC(=O)[C@H]1C[C@@H]1c1cc(Oc2ccc(C(F)(F)F)cc2)cc2cn(C)nc12 (single isomer, unassigned) [Example 34b]
stdin: // compare measured AUC(0-t) between a and b ; output the lower one Refer to your chosen item by its label in the answer.
stdout: b
(b: 31800 ng·h/mL, a: 617000 ng·h/mL)

---

Test system: NCI-H226 cells
Assay: Cell growth assay (CellTiter-Glo)
Type: cell-based, human
Details: Homo sapiens, NCI-H226, 168 h, 7 days treatment, CellTiter-Glo luminescence, read-out: H226 CTG IC50
Method: Example A: Cell Growth Assay CellTiter-Glo reagent (CTG reagent, Promega, G7573). […] Also seeding an extra plate as Day 0 control measurement. The microplates were incubated at 37° C., 5% CO2 overnight. […] Incubated other compounds treated plates at 37° C. for another 7 days and […] of CTG reagent was added into the plates and incubated at room temperature for 30 minutes and detected luminescence signals. […]
pIC50: −log10 of the molar value.
Parameter measured: pIC50

Worked examples, 5 molecules total:
| Molecule | System | pIC50 |
| --- | --- | --- |
| Cn1cc2cc(Oc3ccc(C(F)(F)F)cc3)cc(C3C[C@H]3C(=O)N3CCC[C@@H]3C#N)c2n1 (single isomer, unassigned) [Example 72] | NCI-H226 cells | > 7.00 |
| CNS(=O)(=O)CCc1cc(-c2ccc(C(F)(F)F)cc2)cc2cn(C)nc12 [Example 44] | NCI-H226 cells | > 7.00 |
| CN(C)C(=O)[C@@H]1C[C@H]1c1cc(Oc2ccc(C(F)(F)F)c(F)c2)cc2cn(C)nc12 (single isomer, unassigned) [Example 141] | NCI-H226 cells | > 7.00 |
| Cn1cc2cc(Oc3ccc(C(F)(F)F)cc3)cc(C3C[C@H]3C(=O)N3[C@@H]4CC[C@H]3C[C@@H](O)C4)c2n1 (single isomer, unassigned) [Example 104] | NCI-H226 cells | > 7.00 |
| C=C(CS(=O)(=O)NC)c1cc(-c2ccc(C(F)(F)F)cc2)cc2c1cnn2C [Example 43] | NCI-H226 cells | 4.52 to 6.00 |

stdin: Using known records, supply pIC50 for Cc1ccc2c(c1)c(C1C[C@H]1C(=O)O)cn2-c1ccc(C(F)(F)F)cc1 (mixture of isomers) [Example 21]
stdout: > 7.00

stdin: Using known records, supply pIC50 for COCCNC(=O)[C@@H]1C[C@H]1c1cc(-c2ccc(C(F)(F)F)cc2)cc2c1cnn2C (racemic) [Example 30]
stdout: 6.30 to 7.00

stdin: Using known records, supply pIC50 for CNC(=O)[C@@H]1CC1c1cc(-c2ccc(C(F)(F)F)cc2)cc2c1=NC(C)N=2 (mixture of isomers) [Example 22]
stdout: > 7.00

---

target: TEAD1 (Homo sapiens, UniProt P28347); assay: Thermal shift assay TEAD1; format: binding
Sequence (P28347 whole entry, species assumed): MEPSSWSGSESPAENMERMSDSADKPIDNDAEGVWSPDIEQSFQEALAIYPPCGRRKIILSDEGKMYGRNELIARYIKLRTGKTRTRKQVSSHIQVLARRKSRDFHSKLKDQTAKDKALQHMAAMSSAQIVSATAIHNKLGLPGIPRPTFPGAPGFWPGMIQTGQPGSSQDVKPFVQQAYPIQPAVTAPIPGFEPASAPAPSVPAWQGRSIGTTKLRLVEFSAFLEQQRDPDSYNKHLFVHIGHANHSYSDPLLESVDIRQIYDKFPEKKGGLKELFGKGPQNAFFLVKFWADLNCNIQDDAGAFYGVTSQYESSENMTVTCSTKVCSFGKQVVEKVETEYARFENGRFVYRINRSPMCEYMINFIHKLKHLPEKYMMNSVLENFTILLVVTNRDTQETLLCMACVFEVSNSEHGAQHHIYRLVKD
Parameter measured: TEAD1 ΔTm (°C)

Worked examples, 2 compounds total:
| Compound | Parameter measured | Reported value |
| --- | --- | --- |
| CNS(=O)(=O)CCc1cc(-c2ccc(C(F)(F)F)cc2)cc2cn(C)nc12 | TEAD1 ΔTm | 9.1 |
| CN(C#N)C(=O)[C@@H]1C[C@H]1c1cc(Oc2ccc(C(F)(F)F)cc2)cc2cn(C)nc12 (single isomer, unassigned) | TEAD1 ΔTm | 6.0 |

[P] Cn1cc2cc(Oc3ccc(C(F)(F)F)cc3)cc([C@H]3C[C@@H]3C(=O)O)c2n1 (single isomer, unassigned) [Example 16b]
[Q] Cn1cc2cc(Oc3ccc(C(F)(F)F)c(F)c3)cc([C@@H]3C[C@H]3C(=O)N3C[C@@H]4C[C@H]3C[C@@H]4O)c2n1 (single isomer, unassigned)
[R] CNS(=O)(=O)[C@@H]1CC1c1cc(-c2ccc(C(F)(F)F)cc2)cc2cn(C)nc12 (mixture of isomers)
stdin: Please produce an ascending ranking of these compounds based on TEAD1 ΔTm. Provide your answer as the labels ordered per the instruction.
stdout: R, Q, P

---

test system: NCI-H226 cells; test: Cell growth assay (CellTiter-Glo); format: cell-based, human; details: Homo sapiens, NCI-H226, 168 h, 7 days treatment, CellTiter-Glo luminescence, read-out: H226 CTG IC50
pIC50: −log10 of the molar value.
Parameter measured: pIC50

Worked examples, 10 compounds total:
| Compound | System | pIC50 |
| --- | --- | --- |
| CCNC(=O)[C@@H]1CC1c1cc(-c2ccc(C(F)(F)F)cc2)cc2c1=NC(C)N=2 (mixture of isomers) [Example 23] | NCI-H226 cells | 6.30 to 7.00 |
| CC(C)NC(=O)[C@@H]1CC1c1cc(Oc2ccc(C(F)(F)F)cc2)cc2cn(C)nc12 (mixture of isomers) [Example 56] | NCI-H226 cells | > 7.00 |
| CNS(=O)(=O)CCc1cc(Oc2ccc(C(F)(F)F)cc2)cc2cn(C)nc12 [Example 45] | NCI-H226 cells | 6.30 to 7.00 |
| Cn1cc2cc(Oc3ccc(C(F)(F)F)cc3)cc([C@@H]3C[C@H]3C(=O)N3CC4CC3C(=O)N4)c2n1 (single isomer, unassigned) [Example 121] | NCI-H226 cells | > 7.00 |
| Cn1cc2cc(Oc3ccc(C(F)(F)F)cn3)cc([C@H]3C[C@@H]3C(=O)N3CC(O)C3)c2n1 (single isomer, unassigned) [Example 88b] | NCI-H226 cells | > 7.00 |
| [2H]C([2H])([2H])NC(=O)[C@@H]1C[C@H]1c1cc(Oc2ccc(C(F)(F)F)cc2)cc2cn(C)nc12 (single isomer, unassigned) [Example 52] | NCI-H226 cells | 4.52 to 6.00 |
| Cn1cc2cc(N3CCC4(CCCC4)CC3)cc(C3C[C@H]3C(=O)N3C[C@H](O)[C@@H](O)C3)c2n1 (single isomer, unassigned) [Example 86] | NCI-H226 cells | 4.52 to 6.00 |
| CC(C)NC(=O)[C@H]1C[C@@H]1c1cc(Oc2ccc(C(F)(F)F)cc2)cc2cn(C)nc12 (single isomer, unassigned) [Example 56b] | NCI-H226 cells | > 7.00 |
| CNS(=O)(=O)CCc1cc(N2CCC3(CCCC3)CC2)cc2cn(C)nc12 [Example 48] | NCI-H226 cells | 4.52 to 6.00 |
| Cn1cc2cc(Oc3ccc(C(F)(F)F)cc3)cc([C@@H]3C[C@H]3C(=O)N3CC(O)C3)c2n1 (single isomer, unassigned) [Example 58a] | NCI-H226 cells | 4.52 to 6.00 |

stdin: Using known records, supply pIC50 for Cn1cc2cc(Oc3ccc(C(F)(F)F)cc3)cc(C3C[C@H]3C(=O)N3[C@@H]4CC[C@H]3C[C@H](O)C4)c2n1 (single isomer, unassigned) [Example 105]
stdout: > 7.00

stdin: Using known records, supply pIC50 for Cn1cc2cc(Oc3ccc(C(F)F)cc3)cc([C@H]3C[C@@H]3C(=O)N3CC(O)C3)c2n1 (single isomer, unassigned) [Example 89b]
stdout: > 7.00
